Reported pIC50 is given for each of the following compounds.
- target.entity: FGFR2-WT (Homo sapiens, UniProt P21802)
- protocol.description: Phosphorylated FGFR2-WT (pFGFR2-WT) cell assay, KATOIII cells
- Type: cell-based
- applied.conditions: 1 hour incubation, phospho FGFR2 HTRF
Quick note: pIC50 means taking -log10 of the concentration in moles per liter.

As a guide, the following entries are already answered.
{"compound": "Cc1c(-c2cc(O[C@H](CO)c3ccc(F)cn3)c3c(C#N)cnn3c2)cnn1[C@H]1CC[C@H](O)CC1", "pIC50": 7.68}
{"compound": "Cc1c(-c2cc(O[C@H](C)c3ccc(F)cn3)c3c(C#N)cnn3c2)cnn1[C@H]1CCCC[C@@H]1O", "pIC50": 8.52}

Recorded pIC50 for Cc1nn(C2CCNCC2)c(C)c1-c1cc(O[C@H](C)c2ccccn2)c2c(C#N)cnn2c1 , please? 7.59

// query: Cc1c(-c2cc(O[C@H](C)c3ccc(F)cn3)c3c(C#N)cnn3c2)cnn1[C@@H]1CCC[C@@H](O)C1 8.10

// query: C[C@H](O)C(=O)N1CCC(n2cc(-c3cc(O[C@H](C)c4ccc(F)cn4)c4c(C#N)cnn4c3)cn2)CC1 8.90

// query: Cc1c(-c2cc(O[C@H](C)c3ccc(F)cn3)c3c(C#N)cnn3c2)cnn1[C@@H]1CCCN(C(=O)[C@H](C)O)C1 7.82

// query: Cc1c(-c2cc(O[C@H](C)c3ccc(F)cn3)c3c(C#N)cnn3c2)cnn1[C@H]1CC[C@@](C)(O)CC1 8.40

* * *

- target.entity: FGFR2 (Homo sapiens)
- Construct: biochemical assays using purified intracellular domains of the respective isoforms; purchased Carna Bioscience 08-134
- Sequence (P21802 399-821 limits assumed): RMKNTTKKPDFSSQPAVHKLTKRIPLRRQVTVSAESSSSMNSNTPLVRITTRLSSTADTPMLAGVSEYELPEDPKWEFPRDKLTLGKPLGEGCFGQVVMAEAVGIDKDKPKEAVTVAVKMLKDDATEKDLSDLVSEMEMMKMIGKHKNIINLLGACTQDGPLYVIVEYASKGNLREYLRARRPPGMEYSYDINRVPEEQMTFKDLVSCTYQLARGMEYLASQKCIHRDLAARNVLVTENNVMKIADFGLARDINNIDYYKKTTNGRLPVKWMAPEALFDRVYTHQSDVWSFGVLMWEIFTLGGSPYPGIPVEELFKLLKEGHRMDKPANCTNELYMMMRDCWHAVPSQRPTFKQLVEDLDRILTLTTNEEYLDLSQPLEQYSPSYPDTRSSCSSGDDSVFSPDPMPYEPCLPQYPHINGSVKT
- protocol.description: FGFR wild type enzyme assay (HTRF KinEASE-TK)
- Type: biochemical
- applied.conditions: Table 3; ATP 2 uM; read-out: FGFR2 Enz
Reported IC50 is given for each of the following molecules.

{"molecule": "Cc1c(-c2cc(O[C@H](C)c3ccc(F)cn3)c3c(C#N)cnn3c2)cnn1[C@H]1CCCN(C(=O)[C@@H](C)O)C1 [Compound 48]", "result": "0.4 nM"}

Recorded IC50 for Cc1c(-c2cc(O[C@H](C)c3ccc(F)cn3)c3c(C#N)cnn3c2)cnn1C[C@H](O)CO [Compound 27] , please? 3 nM

// query: Cc1c(-c2cc(O[C@H](C)c3ccc(F)cn3)c3c(C#N)cnn3c2)cnn1[C@@H]1CCCC[C@H]1O [Compound 62] 7 nM

// query: Cc1c(-c2cc(O[C@H](C)c3ccc(F)cn3)c3c(C#N)cnn3c2)cnn1[C@H]1CC[C@H](OC(=O)[C@@H](N)C(C)C)CC1 [Compound 53] 0.3 nM

* * *

- target.entity: FGFR2 V564I (Homo sapiens, UniProt P21802, V564I)
- Construct: biochemical assays using purified intracellular domains of the respective isoforms; purchased Carna Bioscience 08-546
- Sequence (P21802 399-821 V564I limits assumed): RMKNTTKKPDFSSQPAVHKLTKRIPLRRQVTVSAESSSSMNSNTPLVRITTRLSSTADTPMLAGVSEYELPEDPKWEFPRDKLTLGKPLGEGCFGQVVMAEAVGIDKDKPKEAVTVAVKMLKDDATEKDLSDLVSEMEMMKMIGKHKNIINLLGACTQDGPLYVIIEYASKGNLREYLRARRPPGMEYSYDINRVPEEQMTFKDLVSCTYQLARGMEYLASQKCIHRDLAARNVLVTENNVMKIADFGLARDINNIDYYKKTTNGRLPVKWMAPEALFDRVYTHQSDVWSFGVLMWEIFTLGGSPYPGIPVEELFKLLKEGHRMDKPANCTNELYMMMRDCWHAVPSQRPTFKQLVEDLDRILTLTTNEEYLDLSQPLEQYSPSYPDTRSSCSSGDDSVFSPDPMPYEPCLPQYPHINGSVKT
- protocol.description: FGFR mutant enzyme assay (HTRF KinEASE-TK)
- Assay type: biochemical
- applied.conditions: ATP 0.4 uM
- Description: Activity against FGFR wild type and mutant enzymes were determined in biochemical assays using purified intracellular domains of the respective isoforms using HTRF KinEASE-TK assay technology from CisBio, now PerkinElmer. (Catalogue number 62TK0PEC). Briefly test compounds were tested in 11 point 1:3 serial dilutions, typical final concentration range from 10,000 nM to 0.17 nM. […] The plates were read using a multimode reader and the emission ratio of 665 nm to 615 nm was determined. […]
measurement.type: IC50
Please don't drop the unit; write it after the number.

Any idea what IC50 came out for Cc1c(-c2cc(O[C@H](CO)c3ccc(F)cn3)c3c(C#N)cnn3c2)cnn1[C@H]1CC[C@H](O)CC1 [Compound 65] on FGFR2 V564I (Homo sapiens, UniProt P21802, V564I)? 10.6 nM

// query: C[C@@H](Oc1cc(-c2ccc(N3CC[C@@H](O)[C@H](O)C3)nc2)cn2ncc(C#N)c12)c1ccc(F)cn1 [Compound 64] 0.7 nM

// query: C[C@@H](Oc1cc(-c2ccc(N3CC[C@H](O)[C@@H](O)C3)nc2)cn2ncc(C#N)c12)c1ccc(F)cn1 [Compound 63] 1 nM

// query: C[C@@H](Oc1cc(-c2nnn(C)c2N)cn2ncc(C#N)c12)c1ccc(F)cn1 [Compound 34] 12 nM
